- measurement_description: Urinary excretion of quantified metabolites in collected fractions after extract intake
- Format: in vivo, human
- assay_conditions: after consuming lemon extract; fraction collected at 24 h (10-24 h); mean ± SD
So basically: is Metabolite quantified in urine fraction F4 under 0.4 μg/mg creatinine? Then 1. Not under? Then 0.

INSERT INTO assay_data (compound, discrete_label) VALUES
  ('COc1ccc(C2CC(=O)c3c(O)cc(O)cc3O2)cc1O[C@@H]1O[C@H](C(=O)O)[C@@H](O)[C@H](O)[C@H]1O (some centres unmarked) [M8, Hesperetin 3''-O-glucuronide]', 0),
  ('COc1ccc([C@@H]2CC(=O)c3c(O)cc(O[C@@H]4O[C@H](C(=O)O)[C@@H](O)[C@H](O)[C@H]4O)cc3O2)cc1O [M7, Hesperetin 7-O-glucuronide]', 0),
  ('COc1ccc(C2CC(=O)c3c(O)cc(O)cc3O2)cc1OS(=O)(=O)O (centres unmarked) [M14, Hesperetin 3''-O-sulfate]', 0),
  ('O=C1C[C@@H](c2ccc(O)cc2)Oc2cc(O[C@@H]3O[C@H](C(=O)O)[C@@H](O)[C@H](O)[C@H]3O)cc(O)c21 [M3, Naringenin 7-O-glucuronide]', 1);

* * *

- measurement_description: Urinary excretion of quantified metabolites in collected fractions after extract intake
- Type: in vivo, human
- assay_conditions: after consuming orange extract; fraction collected at 24 h (10-24 h); mean ± SD
Below is a list of entries, each paired with its recorded Metabolite quantified in urine fraction F4 value.
result_type: Metabolite quantified in urine fraction F4 (μg/mg creatinine)

INSERT INTO measurements (compound, unit_info, endpoint_value) VALUES
  ('COc1ccc(C2CC(=O)c3c(O)cc(O)cc3O2)cc1O[C@@H]1O[C@H](C(=O)O)[C@@H](O)[C@H](O)[C@H]1O (some centres unmarked) [M8, Hesperetin 3''-O-glucuronide]', 'μg/mg creatinine', 1.8),
  ('COc1ccc([C@@H]2CC(=O)c3c(O)cc(O[C@@H]4O[C@H](C(=O)O)[C@@H](O)[C@H](O)[C@H]4O)cc3O2)cc1O [M7, Hesperetin 7-O-glucuronide]', 'μg/mg creatinine', 1.1),
  ('O=C1C[C@@H](c2ccc(O)cc2)Oc2cc(O[C@@H]3O[C@H](C(=O)O)[C@@H](O)[C@H](O)[C@H]3O)cc(O)c21 [M3, Naringenin 7-O-glucuronide]', 'μg/mg creatinine', 0.2),
  ('O=C1C[C@@H](c2ccc(O[C@@H]3O[C@H](C(=O)O)[C@@H](O)[C@H](O)[C@H]3O)cc2)Oc2cc(O)cc(O)c21 [M5, Naringenin 4''-O-glucuronide]', 'μg/mg creatinine', 0.3),
  ('COc1ccc(C2CC(=O)c3c(O)cc(O)cc3O2)cc1OS(=O)(=O)O (centres unmarked) [M14, Hesperetin 3''-O-sulfate]', 'μg/mg creatinine', 0.6);

* * *

- measurement_description: Urinary excretion of quantified metabolites in collected fractions after extract intake
- Format: in vivo, human
- assay_conditions: after consuming lemon extract; fraction 0 to 4 h; mean ± SD
Label condition met when Metabolite quantified in urine fraction F1 is at or above 1 μg/mg creatinine; anything below gets condition not met.

INSERT INTO results (compound, discrete_label) VALUES
  ('O=C1C[C@@H](c2ccc(O[C@@H]3O[C@H](C(=O)O)[C@@H](O)[C@H](O)[C@H]3O)cc2)Oc2cc(O)cc(O)c21 [M5, Naringenin 4''-O-glucuronide]', 'condition not met'),
  ('COc1ccc(C2CC(=O)c3c(O)cc(O)cc3O2)cc1OS(=O)(=O)O (centres unmarked) [M14, Hesperetin 3''-O-sulfate]', 'condition met'),
  ('COc1ccc([C@@H]2CC(=O)c3c(O)cc(O[C@@H]4O[C@H](C(=O)O)[C@@H](O)[C@H](O)[C@H]4O)cc3O2)cc1O [M7, Hesperetin 7-O-glucuronide]', 'condition met'),
  ('COc1ccc(C2CC(=O)c3c(O)cc(O)cc3O2)cc1O[C@@H]1O[C@H](C(=O)O)[C@@H](O)[C@H](O)[C@H]1O (some centres unmarked) [M8, Hesperetin 3''-O-glucuronide]', 'condition met');

Recorded values, source patent US20220031723A1.
